Source: ChEMBL document CHEMBL1141353

procedure-details: Toxicity in brine shrimp assessed as survival rate after 24 hrs
Assay type: organism-based
conditions-used: artemia salina, in vivo
Consider the following compounds and their measured LC50 at 24 h readings.
Lab book: enter the figure in µM, no units written.

compound: COC(=O)/C1=C/C(=O)C[C@@H](C)CCC[C@@H](C)C(=O)C[C@@H](C(C)C)C(=O)C1 [METHYL TETRAHYDROSARCOATE]
LC50 at 24 h (µM): 1.5

INPUT: Give LC50 at 24 h for the following compound: COC(=O)[C@]12CC(=O)[C@H](C(C)C)CC(=O)[C@H](C)CCC[C@H](C)CC(=O)[C@H]1CC(C)=C1C[C@H](O)[C@]3(C)O[C@@H]3CC[C@]3(C)O[C@@H]3CC/C(C)=C/[C@@H]12 [DIEPOXYNYALOLIDE]
OUTPUT: 1.5
